viability, T/C values for the molecules below.
System: 616215-338-R-J1-PDC complex spheroid viability
test: Anticancer human tumor 616215-338-R-J1-PDC patient-derived colon adenocarcinoma cell line growth inhibition [RAS]
recorded-conditions: second compound 0.3 µM; first compound 0.1 µM; stronger effect = lower value
Source text: RAS pathway inhibitors in Combinations in Complex Spheroids A high-throughput screen of multi-cell type tumor spheroids was designed to identify active combinations of RAS pathway inhibitors and targeted small molecules. Complex spheroids include a stromal component modeled by human endothelial cells (HUVEC) and fibroblasts modeled by human mesenchymal stem cells (MSCs). […] Compounds. […] If the clinical Cmax for an agent had not been determined, the highest concentration tested was 10 microM. […]
Numeric only. Scale: %

CC(Nc1ccc2c(c1)OCCn1cc(N3C(=O)OCC3C(F)F)nc1-2)C(N)=O (configuration not stated) + CCn1c(-c2cccnc2C(C)OC)c2c3cc(ccc31)N1CCOC(CC(NC(=O)C(C(C)C)N(C)C(=O)C3(F)CCN(C(=O)C#CC(C)(C)N(C)C)CC3)C(=O)N3CCCC(N3)C(=O)OCC(C)(C)C2)C1 :: 87.6

Now consider a different molecule.
Task: Check 616215-338-R-J1-PDC complex spheroid viability data and give viability, T/C for CCC(CC)c1cc(NC2CCC(N)C2)n2nccc2n1 (configuration not stated) + CCn1c(-c2cc(N3CCN(C)CC3)cnc2C(C)OC)c2c3cc(ccc31)-c1csc(n1)CC(NC(=O)C1CC1C)C(=O)N1CCCC(N1)C(=O)OCC(C)(C)C2 .
Result: 38.5

###

System: 616215-338-R-J1-PDC complex spheroid viability
test: Anticancer human tumor 616215-338-R-J1-PDC cell line growth inhibition [RAS];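 further: spheroids exposed to agents for seven days before viability readout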;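 on viability, T/C: 100% = DMSO vehicle control viability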
recorded-conditions: second compound 0.003 µM; first compound 0.3 µM; stronger effect = lower value
From the text: RAS pathway inhibitors in Combinations in Complex Spheroids A high-throughput screen of multi-cell type tumor spheroids was designed to identify active combinations of RAS pathway inhibitors and targeted small molecules. Complex spheroids include a stromal component modeled by human endothelial cells (HUVEC) and fibroblasts modeled by human mesenchymal stem cells (MSCs). […] Compounds. […] If the clinical Cmax for an agent had not been determined, the highest concentration tested was 10 microM. […]
viability, T/C values for the molecules below.
Numeric only. Scale: %

Task: Input CCc1c2c(nc3ccc(O)cc13)-c1cc3c(c(=O)n1C2)COC(=O)[C@]3(O)CC + CCn1c(-c2cc(N3CCN(C)CC3)cnc2C(C)OC)c2c3cc(ccc31)-c1csc(n1)CC(NC(=O)C1CC1C)C(=O)N1CCCC(N1)C(=O)OCC(C)(C)C2 , output reported viability, T/C.
Result: 12.1

Task: Input CC1(C)CCC(Nc2ncc(C(F)(F)F)c(-c3c[nH]c4c(P(C)(C)=O)c(C#N)ccc34)n2)CN1 (centres undefined) + CCn1c(-c2cccnc2C(C)OC)c2c3cc(ccc31)N1CCOC(CC(NC(=O)C(C(C)C)N(C)C(=O)C3(F)CCN(C(=O)C#CC(C)(C)N(C)C)CC3)C(=O)N3CCCC(N3)C(=O)OCC(C)(C)C2)C1 , output reported viability, T/C.
Result: 35.2

Task: Input CCc1c2c(nc3ccc(O)cc13)-c1cc3c(c(=O)n1C2)COC(=O)[C@]3(O)CC + CCn1c(-c2cccnc2C(C)OC)c2c3cc(ccc31)N1CCOC(CC(NC(=O)C(C(C)C)N(C)C(=O)C3(F)CCN(C(=O)C#CC(C)(C)N(C)C)CC3)C(=O)N3CCCC(N3)C(=O)OCC(C)(C)C2)C1 , output reported viability, T/C.
Result: 16.6

Task: Input CC1(C)CCC(Nc2ncc(C(F)(F)F)c(-c3c[nH]c4c(P(C)(C)=O)c(C#N)ccc34)n2)CN1 (centres undefined) + CCn1c(-c2cc(N3CCN(C)CC3)cnc2C(C)OC)c2c3cc(ccc31)-c1csc(n1)CC(NC(=O)C1CC1C)C(=O)N1CCCC(N1)C(=O)OCC(C)(C)C2 , output reported viability, T/C.
Result: 39.6

###

IC50 values for the molecules below.
Tested on: 616215-338-R-J1-PDC complex spheroid viability
test: Anticancer human tumor 616215-338-R-J1-PDC cell line growth inhibition [RAS];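 further: spheroids exposed to agents for seven days before viability readout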
recorded-conditions: curve of first compound; second compound 0.3 µM

Cc1nc(N2CCC3(CC2)COC(C)C3N)c(CO)nc1Sc1ccnc(N)c1Cl (stereo not drawn) + CCn1c(-c2cc(N3CCN(C)CC3)cnc2C(C)OC)c2c3cc(ccc31)-c1csc(n1)CC(NC(=O)C1CC1C)C(=O)N1CCCC(N1)C(=O)OCC(C)(C)C2 :: < 31.6 nM

Task: Input Nc1ccn(C2OC(CO)C(O)C2(F)F)c(=O)n1 (stereo not drawn) + CCn1c(-c2cccnc2C(C)OC)c2c3cc(ccc31)N1CCOC(CC(NC(=O)C(C(C)C)N(C)C(=O)C3(F)CCN(C(=O)C#CC(C)(C)N(C)C)CC3)C(=O)N3CCCC(N3)C(=O)OCC(C)(C)C2)C1 , output reported IC50.
Result: 9.55 nM

Task: Input Nc1ccn(C2OC(CO)C(O)C2(F)F)c(=O)n1 (stereo not drawn) + CCn1c(-c2cc(N3CCN(C)CC3)cnc2C(C)OC)c2c3cc(ccc31)-c1csc(n1)CC(NC(=O)C1CC1C)C(=O)N1CCCC(N1)C(=O)OCC(C)(C)C2 , output reported IC50.
Result: < 3.16 nM

Task: Input CC1(C)CCC(Nc2ncc(C(F)(F)F)c(-c3c[nH]c4c(P(C)(C)=O)c(C#N)ccc34)n2)CN1 (stereo not drawn) + CCn1c(-c2cccnc2C(C)OC)c2c3cc(ccc31)N1CCOC(CC(NC(=O)C(C(C)C)N(C)C(=O)C3(F)CCN(C(=O)C#CC(C)(C)N(C)C)CC3)C(=O)N3CCCC(N3)C(=O)OCC(C)(C)C2)C1 , output reported IC50.
Result: 8.41 nM

Task: Input C=CC(=O)Nc1cc(Nc2nccc(-c3cn(C)c4ccccc34)n2)c(OC)cc1N(C)CCN(C)C + CCn1c(-c2cc(N3CCN(C)CC3)cnc2C(C)OC)c2c3cc(ccc31)-c1csc(n1)CC(NC(=O)C1CC1C)C(=O)N1CCCC(N1)C(=O)OCC(C)(C)C2 , output reported IC50.
Result: < 3.16 nM

Task: Input CC1(O)CCCC1n1c(=O)c(C(F)F)cc2cnc(NC3CCN(S(C)(=O)=O)CC3)nc21 (stereo not drawn) + CCn1c(-c2cc(N3CCN(C)CC3)cnc2C(C)OC)c2c3cc(ccc31)-c1csc(n1)CC(NC(=O)C1CC1C)C(=O)N1CCCC(N1)C(=O)OCC(C)(C)C2 , output reported IC50.
Result: < 31.6 nM

Task: Input CC(Nc1ccc2c(c1)OCCn1cc(N3C(=O)OCC3C(F)F)nc1-2)C(N)=O (stereo not drawn) + CCn1c(-c2cc(N3CCN(C)CC3)cnc2C(C)OC)c2c3cc(ccc31)-c1csc(n1)CC(NC(=O)C1CC1C)C(=O)N1CCCC(N1)C(=O)OCC(C)(C)C2 , output reported IC50.
Result: < 31.6 nM

Task: Input CCc1c2c(nc3ccc(O)cc13)-c1cc3c(c(=O)n1C2)COC(=O)[C@]3(O)CC + CCn1c(-c2cc(N3CCN(C)CC3)cnc2C(C)OC)c2c3cc(ccc31)-c1csc(n1)CC(NC(=O)C1CC1C)C(=O)N1CCCC(N1)C(=O)OCC(C)(C)C2 , output reported IC50.
Result: < 0.949 nM

###

IC50 values for the compounds below.
Test system: 616215-338-R-J1-PDC complex spheroid viability
test: Anticancer human tumor 616215-338-R-J1-PDC cell line growth inhibition [RAS];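 further: spheroids exposed to agents for seven days before viability readout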
recorded-conditions: curve of first compound; second compound 0.3 µM
Numeric only. Scale: nM

C[C@@H](NC(=O)c1ncnc(N)c1Cl)c1ncc(C(=O)Nc2cc(C(F)(F)F)c(Cl)cn2)s1 + CCn1c(-c2cccnc2C(C)OC)c2c3cc(ccc31)N1CCOC(CC(NC(=O)C(C(C)C)N(C)C(=O)C3(F)CCN(C(=O)C#CC(C)(C)N(C)C)CC3)C(=O)N3CCCC(N3)C(=O)OCC(C)(C)C2)C1 :: 6230

Task: Input NC1c2ccccc2OC12CCN(c1cnc3c(N4CCCc5ncccc54)n[nH]c3n1)CC2 (centres undefined) + CCn1c(-c2cccnc2C(C)OC)c2c3cc(ccc31)N1CCOC(CC(NC(=O)C(C(C)C)N(C)C(=O)C3(F)CCN(C(=O)C#CC(C)(C)N(C)C)CC3)C(=O)N3CCCC(N3)C(=O)OCC(C)(C)C2)C1 , output reported IC50.
Result: 564

###

Tested on: 616215-338-R-J1-PDC complex spheroid viability
test: Anticancer human tumor 616215-338-R-J1-PDC cell line growth inhibition [RAS]; active = viability on the fitted dose curve at most 10% of control; inactive = the rest;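 further: spheroids exposed to agents for seven days before viability readout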
recorded-conditions: second compound 0.000949 µM; first compound 10 µM
Choose one outcome from this list and give only that: active, inactive

Illustrative cases are given below, each with its answer.
CC(=O)OC12COC1CC(O)C1(C)C(=O)C(O)C3=C(C)C(OC(=O)C(O)C(NC(=O)OC(C)(C)C)c4ccccc4)CC(O)(C(OC(=O)c4ccccc4)C21)C3(C)C (stereo unspecified) + CCn1c(-c2cc(N3CCN(C)CC3)cnc2C(C)OC)c2c3cc(ccc31)-c1csc(n1)CC(NC(=O)C1CC1C)C(=O)N1CCCC(N1)C(=O)OCC(C)(C)C2 :: inactive
Cc1nc(N2CCC3(CC2)COC(C)C3N)c(CO)nc1Sc1ccnc(N)c1Cl (stereo unspecified) + CCn1c(-c2cccnc2C(C)OC)c2c3cc(ccc31)N1CCOC(CC(NC(=O)C(C(C)C)N(C)C(=O)C3(F)CCN(C(=O)C#CC(C)(C)N(C)C)CC3)C(=O)N3CCCC(N3)C(=O)OCC(C)(C)C2)C1 :: inactive
NC1c2ccccc2OC12CCN(c1cnc3c(N4CCCc5ncccc54)n[nH]c3n1)CC2 (stereo unspecified) + CCn1c(-c2cccnc2C(C)OC)c2c3cc(ccc31)N1CCOC(CC(NC(=O)C(C(C)C)N(C)C(=O)C3(F)CCN(C(=O)C#CC(C)(C)N(C)C)CC3)C(=O)N3CCCC(N3)C(=O)OCC(C)(C)C2)C1 :: inactive

Task: What call does the record list for CCC(CC)c1cc(NC2CCC(N)C2)n2nccc2n1 (stereo unspecified) + CCn1c(-c2cc(N3CCN(C)CC3)cnc2C(C)OC)c2c3cc(ccc31)-c1csc(n1)CC(NC(=O)C1CC1C)C(=O)N1CCCC(N1)C(=O)OCC(C)(C)C2 ?
Result: active

Task: What call does the record list for CC(=O)OC12COC1CC(O)C1(C)C(=O)C(O)C3=C(C)C(OC(=O)C(O)C(NC(=O)OC(C)(C)C)c4ccccc4)CC(O)(C(OC(=O)c4ccccc4)C21)C3(C)C (stereo unspecified) + CCn1c(-c2cccnc2C(C)OC)c2c3cc(ccc31)N1CCOC(CC(NC(=O)C(C(C)C)N(C)C(=O)C3(F)CCN(C(=O)C#CC(C)(C)N(C)C)CC3)C(=O)N3CCCC(N3)C(=O)OCC(C)(C)C2)C1 ?
Result: inactive

Task: What call does the record list for Cc1nc(N2CCC3(CC2)COC(C)C3N)c(CO)nc1Sc1ccnc(N)c1Cl (stereo unspecified) + CCn1c(-c2cc(N3CCN(C)CC3)cnc2C(C)OC)c2c3cc(ccc31)-c1csc(n1)CC(NC(=O)C1CC1C)C(=O)N1CCCC(N1)C(=O)OCC(C)(C)C2 ?
Result: inactive
